test.target: T1, recombinant human CFD, His-tagged (human, UniProt P00746 26-253)
T1 construct: also called rhCFD-His
T1 sequence (P00746 26-253 limits assumed): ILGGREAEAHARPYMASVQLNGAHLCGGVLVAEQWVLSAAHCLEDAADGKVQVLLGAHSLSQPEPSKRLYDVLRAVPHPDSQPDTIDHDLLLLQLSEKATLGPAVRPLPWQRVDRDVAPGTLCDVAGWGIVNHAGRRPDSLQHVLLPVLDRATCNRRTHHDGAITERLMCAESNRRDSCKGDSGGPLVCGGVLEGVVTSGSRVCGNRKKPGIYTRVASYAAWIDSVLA
measurement.protocol: SPR MX96
endpoint.label: log10(Kd) (log10 of the value in nM)

- binder: "KCD136 (antibody, V domains shown, chimeric) VH: EVQLQQSVAELVRPGASVKLSCSASGFNIKNTYMHWVNQRPEQGLEWIGRIDPANGITKYAPNFQGKATITADTSSNTAYLQLSNLTSEDTAIYYCTRAMDYWGQGTSVTVSS VL: QIVLTQSPAIMSASPGEKVTMTCSASSSVSYMYWYQQKPGSSPRLLIYDISNLASGVPVRFSGSGSGTSYSLTISRMEAEDAATYYCQQWDTYPWTFGGGTKLEIK"
  endpoint.result: 0.53
- binder: "KCD212 (antibody, V domains shown) VH: EVHLVESGGDLVKPGGSLKLSCAASGFTFSRYGMSWVRQTPDKRLEWVATISSAGSYTYYPDSVKGRFTISRDNAKNTLFLQMSSLKSEDTAMYYCARPLNYYGTSSFDYWGQGTTLTVSS VL: QIVLTQSPAIMSASPGEKVTMTCRASSSVSSTYLHWYQQKPGSSPKLWIYSTSNLASGVPPRFSGSGSGTSYSLTISSVEAEDAATYYCQQYDSSPNTFGAGTKLELK"
  endpoint.result: -0.68
- binder: "KCD075 (antibody, V domains shown) VH: QVQLLQPGAELVRPGTSVKLSCKASGYTFSNYWINWVKQRPGQGLEWIGNIYPSDSSINYNQKFKDKATLTVDKSSTTAYMQLSSPTSEDSAVYYCTGTDWYFDVWGAGTTVTVSS VL: DIQMTQTTSSLSASLGDRVTISCSGGQGISNYLNWYQQKPDGTFKLLIYYTSTLHSGVPSRFSGSGSGTDYSLTISNLEPEDVATYYCQQYSKLPYTFGGGTKLEIK"
  endpoint.result: 0.40
- binder: "KCD132 (antibody, V domains shown) VH: QVQLQQSGPELVKPGASVKISCKASGYSFTDYYINWVKQRPGQGLEWIGWIFPGSGSTYYNEKFKGKATLTVDKSSSTAYMLLSSLTSEDSAVYFCARTGYYSNLYAVDYWGQGTSVTVSS VL: DIQMTQSPASLSVSVGETVTITCRASENIYSNLAWYQQKQGKSPQLLVYVATNLADGVPSRFSGSGSGTQYSLKINSLQSEDFGNYYCQHFWGTPYTFGGGTKLEMR"
  endpoint.result: 0.20
- binder: "KCD220 (antibody, V domains shown, chimeric) VH: QVQLQQSGAELMEPGASVKLSCKATGYTFTGYWIEWVKQRPGHGLEWIGETLPGSDSNNYNEKFKGKATFTADTSSNTAYMQLSSLTTEDSAIYYCARDYSNYWYFDVWGTGTTVTVSS VL: DIQMTQTTSSLSASLGDRVTISCRASQDISNYLNWYQQKPDGTVKLLIYYTSNLHSGVPSRFSGSGSGTDYSLTISNLEQEDIATYFCQQDSKHRTFGGGTKLEIK"
  endpoint.result: -1.13

Values were extracted from patent US20180334496A1.
